Kd values for the sequences below.
Target: HLA-A*01:01
Experiment: IEDB peptide-MHC binding, purified MHC/competitive/radioactivity; filed as Kd, often an IC50 or EC50 that approximates it; bounds were set here for any values at or beyond the usual limits of such assays
Details: source organism: Dengue virus 2 Jamaica/1409/1983
# value in µM; strip the unit string

-- ask Fill in the blank: the reported Kd of FTIMAAILAY is ____.
-- reply 0.973

Here is another sequence to look at.
-- ask Fill in the blank: the reported Kd of LLSPVRVPNY is ____.
-- reply 15.1

---

Molecular target: HLA-B*08:01
Test: IEDB peptide-MHC binding, purified MHC/competitive/fluorescence; bounds were set here for any values at or beyond the usual limits of such assays
Settings: source organism: Vaccinia virus
result.type: IC50

-- ask What IC50 appears in the records for this sequence with HLA-B*08:01? HFKPPKFRA
-- reply ≥ 150 µM
